Source listed as patent US20250027068.

Molecular target: pooled human IgG (human IgG1,2,3 and 4)
Please provide measured Enzyme Activity Endpoint Assay (purified): scIgG for the entries that follow.
Field format: number, assumed ng/µL, no unit text.

Consider the protein PRT-296 (protein) MVTSVWTKGVTPPADFTQGEDVFHAPYVANQGWYDITKEFNGKDDLLCGAATAGNMLHWWFDQNKEYIEAYLKKHPEKQKIMFGDQELLDVRKAINTKGSQKNSELFNYFRDKAFPNLSARRLGVMPDLVLDMFINGYYLNVTKTQTTDVNRTYQEKDKRGGIFDAVFTRGDQSKLLTSRHDFKEKGLKEISDLIKQELTEGKALGLSHTYANVRIGHVINLWGADFDSDGNLKAIYVTDSDSNASIGMKKYGVGVNSAGKVAISAKEIKEDNIGAQVLGLFTLSTGQDIWNQTN and give its measured Enzyme Activity Endpoint Assay (purified): scIgG.
0

Check PRT-485 (protein) MVTSVWTKGVTPPANFTQGEDVFHAPYKANQGWYDITKTFNGKDNLLCGAATAGNMLHWWFDQNKDQIEAYLKEHPEKQKIIFNNQELFDLKAAIDTKDDQTNSKLFEYFKEKAFPYLSTKHLGVFPDHVLDMFINGYRLSLTNHGPTPVKEGSKDKRGGIFDAVFTRGVQSKLLTSRHDLKNKTLKEISDLIKQELTEGKALALSHTYANVRINHVINLWGADFDSNGNLEAIYVTDSDTNASIGMKKYFVGVNSAGKVAISAKEIEDDNIGAQVLGLFTLSTGQDIWNQTNLEHHHHHH too.
0
